Reference for the values: paper PMC11946580

Molecular target: 5-LOX (Homo sapiens, UniProt P09917)
Sequence (P09917 1-674): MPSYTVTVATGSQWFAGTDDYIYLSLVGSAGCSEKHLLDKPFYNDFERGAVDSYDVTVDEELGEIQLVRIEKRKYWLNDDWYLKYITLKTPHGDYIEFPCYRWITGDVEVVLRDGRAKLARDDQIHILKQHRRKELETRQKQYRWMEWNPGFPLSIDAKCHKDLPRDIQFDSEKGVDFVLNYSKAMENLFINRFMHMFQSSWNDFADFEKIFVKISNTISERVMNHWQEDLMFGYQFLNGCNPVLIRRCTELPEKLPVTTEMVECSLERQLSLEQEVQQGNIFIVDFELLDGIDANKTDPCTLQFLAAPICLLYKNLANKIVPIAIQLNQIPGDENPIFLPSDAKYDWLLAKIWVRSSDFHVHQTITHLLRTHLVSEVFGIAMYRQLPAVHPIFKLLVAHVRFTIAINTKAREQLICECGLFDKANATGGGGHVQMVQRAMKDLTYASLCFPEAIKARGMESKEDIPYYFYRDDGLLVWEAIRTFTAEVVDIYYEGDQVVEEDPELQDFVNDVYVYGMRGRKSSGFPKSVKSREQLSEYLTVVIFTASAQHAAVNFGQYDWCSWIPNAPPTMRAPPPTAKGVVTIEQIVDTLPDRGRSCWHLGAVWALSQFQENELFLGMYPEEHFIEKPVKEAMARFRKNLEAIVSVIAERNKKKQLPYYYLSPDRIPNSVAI
Experiment: 5-Lipoxygenase inhibition assay (kit); note: test concentration or dose not given here
Conditions: mean ± SE, three replicates
experimental readout: 5-LOX Inhibition (%)
Enter the number, and then the unit.

Worked set:
{"compound": "COc1ccc(Nc2n[nH]c(N=C3C(=O)N(C)c4ccccc43)c2C(=O)Nc2ccccc2)cc1 [12c]", "val": "13.08 ± 0.04%"}
{"compound": "Cc1ccc(NC(=O)c2c(Nc3ccccc3)n[nH]c2N=C2C(=O)N(C)c3ccccc32)cc1 [12b]", "val": "10.85 ± 0.04%"}
{"compound": "COc1ccc(Nc2n[nH]c(N=C3C(=O)N(C)c4ccccc43)c2C(=O)Nc2ccc(C)cc2)cc1 [12d]", "val": "12.90 ± 0.04%"}

Write down measured 5-LOX Inhibition (%) (5-LOX (Homo sapiens, UniProt P09917)) for this compound. CCN1C(=O)C(=Nc2[nH]nc(Nc3ccc(OC)cc3)c2C(=O)Nc2ccccc2)c2ccccc21 [12g]
13.25 ± 0.04%

Provide 5-LOX Inhibition (%), tested on 5-LOX (Homo sapiens, UniProt P09917), for COc1ccc(Nc2n[nH]c(N=Cc3c[nH]c4ccccc34)c2C(=O)Nc2ccccc2)cc1 [14c] .
27.17 ± 0.26%

Print 5-LOX (Homo sapiens, UniProt P09917) 5-LOX Inhibition (%) for Cc1ccc(NC(=O)c2c(Nc3ccccc3)n[nH]c2N=Cc2c[nH]c3ccccc23)cc1 [14b] .
61.93 ± 0.26%

Fill in 5-LOX Inhibition (%) for CCN1C(=O)C(=Nc2[nH]nc(Nc3ccccc3)c2C(=O)Nc2ccccc2)c2ccccc21 [12e] tested with 5-LOX (Homo sapiens, UniProt P09917).
9.72 ± 0.04%

Fetch value of 5-LOX Inhibition (%) on 5-LOX (Homo sapiens, UniProt P09917) for CCN1C(=O)C(=Nc2[nH]nc(Nc3ccc(OC)cc3)c2C(=O)Nc2ccc(C)cc2)c2ccccc21 [12h] .
12.66 ± 0.04%

Enter measured 5-LOX Inhibition (%), system 5-LOX (Homo sapiens, UniProt P09917), for the compound shown: CC(c1cc2ccccc2s1)N(O)C(N)=O (stereo not shown) [Zileuton, reference compound]
72.61 ± 0.07%

# lookup: 5-LOX (Homo sapiens, UniProt P09917) 5-LOX Inhibition (%), key = CCN1C(=O)/C(=N\c2[nH]nc(Nc3ccccc3)c2C(=O)Nc2ccc(C)cc2)c2ccccc21 [12f]
11.01 ± 0.04%

Print 5-LOX (Homo sapiens, UniProt P09917) 5-LOX Inhibition (%) for CN1C(=O)C(=Nc2[nH]nc(Nc3ccccc3)c2C(=O)Nc2ccccc2)c2ccccc21 [12a] .
9.57 ± 0.04%

Report 5-LOX Inhibition (%) on 5-LOX (Homo sapiens, UniProt P09917) for this entry: O=C(Nc1ccccc1)c1c(Nc2ccccc2)n[nH]c1N=Cc1c[nH]c2ccccc12 [14a]
44.89 ± 0.26%

Fill in 5-LOX Inhibition (%) for COc1ccc(Nc2n[nH]c(N=Cc3c[nH]c4ccccc34)c2C(=O)Nc2ccc(C)cc2)cc1 [14d] tested with 5-LOX (Homo sapiens, UniProt P09917).
27.73 ± 0.26%
